The values you see were collected from BigSolDB 2.1.

Conditions: in n-butanol, 308.15 K
READOUT_TYPE: solubility (mole fraction)

>>> print(df.to_string())
                            chemical_string  endpoint_result
0  CS(=O)(=O)c1ccc(C(=O)C2C(=O)CCCC2=O)c([N+](=O)[O-])c1          0.00355

* * *

Details: in sec-butanol, 303.15 K
READOUT_TYPE: solubility (mole fraction)

                            chemical_string  endpoint_result
0  CS(=O)(=O)c1ccc(C(=O)C2C(=O)CCCC2=O)c([N+](=O)[O-])c1          0.00145
